Hello, the source for this data is paper PMC4434323, in case you need it.

Molecular target: odr-7 (T18D3.2) (Caenorhabditis elegans) (UniProt P41933)
Sequence: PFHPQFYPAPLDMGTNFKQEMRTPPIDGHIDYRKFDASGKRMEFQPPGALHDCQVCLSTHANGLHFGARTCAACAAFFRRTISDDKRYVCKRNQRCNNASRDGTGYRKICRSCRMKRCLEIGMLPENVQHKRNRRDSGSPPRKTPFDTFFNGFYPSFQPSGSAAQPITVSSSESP
ASSAY READOUT: binding signal (PBM E-score (-0.5 to 0.5))
No unit in the answer, please; the number alone is enough.

Problem: Please list binding signal (PBM E-score (-0.5 to 0.5)) recorded for the sequence AATTGTAG (double strand) [8-mer AATTGTAG]
Result: 0.489

***
Problem: Please list binding signal (PBM E-score (-0.5 to 0.5)) recorded for the sequence ATACAATA (double strand) [8-mer ATACAATA]
Result: 0.461

Problem: Please list binding signal (PBM E-score (-0.5 to 0.5)) recorded for the sequence ATTGTAGC (double strand) [8-mer ATTGTAGC]
Result: 0.487

Problem: Please list binding signal (PBM E-score (-0.5 to 0.5)) recorded for the sequence CTACAATC (double strand) [8-mer CTACAATC]
Result: 0.466

----------
Target: nhr-1 (R09G11.2) (Caenorhabditis elegans) (UniProt Q21878)
Sequence: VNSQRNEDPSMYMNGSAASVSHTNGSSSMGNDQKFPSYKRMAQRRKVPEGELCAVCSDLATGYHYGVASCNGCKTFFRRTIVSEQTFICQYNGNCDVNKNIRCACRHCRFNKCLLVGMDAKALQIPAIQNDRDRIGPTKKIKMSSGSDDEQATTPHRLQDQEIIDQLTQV
ASSAY READOUT: binding signal (PBM E-score (-0.5 to 0.5))
No unit in the answer, please; the number alone is enough.

Problem: Please list binding signal (PBM E-score (-0.5 to 0.5)) recorded for the sequence AGCGATCA (double strand) [8-mer AGCGATCA]
Result: 0.476

Problem: Please list binding signal (PBM E-score (-0.5 to 0.5)) recorded for the sequence GTTGATCA (double strand) [8-mer GTTGATCA]
Result: 0.477

Problem: Please list binding signal (PBM E-score (-0.5 to 0.5)) recorded for the sequence GATGATCA (double strand) [8-mer GATGATCA]
Result: 0.488

Problem: Please list binding signal (PBM E-score (-0.5 to 0.5)) recorded for the sequence AATGATCA (double strand) [8-mer AATGATCA]
Result: 0.493

Problem: Please list binding signal (PBM E-score (-0.5 to 0.5)) recorded for the sequence ATGATCAT (double strand) [8-mer ATGATCAT]
Result: 0.476

----------
Quick list: binding signal (PBM E-score (-0.5 to 0.5)) per entry.
Target: ceh-18 (ZC64.3) (Caenorhabditis elegans) (UniProt P41934)
Sequence: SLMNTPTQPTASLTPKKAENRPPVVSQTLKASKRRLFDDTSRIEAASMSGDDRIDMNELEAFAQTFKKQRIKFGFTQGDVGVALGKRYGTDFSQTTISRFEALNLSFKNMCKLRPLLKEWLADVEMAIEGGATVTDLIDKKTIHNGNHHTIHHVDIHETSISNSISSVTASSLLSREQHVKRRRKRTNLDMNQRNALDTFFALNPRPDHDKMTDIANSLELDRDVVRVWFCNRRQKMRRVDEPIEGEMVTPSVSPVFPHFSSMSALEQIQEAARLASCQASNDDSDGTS

Sample records with binding signal (PBM E-score (-0.5 to 0.5)):
Problem: Please list binding signal (PBM E-score (-0.5 to 0.5)) recorded for the sequence TATGCATA (double strand) [8-mer TATGCATA]
Result: 0.497

Problem: Please list binding signal (PBM E-score (-0.5 to 0.5)) recorded for the sequence TTATGCAA (double strand) [8-mer TTATGCAA]
Result: 0.476

Problem: Please list binding signal (PBM E-score (-0.5 to 0.5)) recorded for the sequence TGCATAAA (double strand) [8-mer TGCATAAA]
Result: 0.476

Problem: Please list binding signal (PBM E-score (-0.5 to 0.5)) recorded for the sequence ATATGCAC (double strand) [8-mer ATATGCAC]
Result: 0.477

Problem: Please list binding signal (PBM E-score (-0.5 to 0.5)) recorded for the sequence AATATTCA (double strand) [8-mer AATATTCA]
Result: 0.477

Problem: Please list binding signal (PBM E-score (-0.5 to 0.5)) recorded for the sequence AATATGCA (double strand) [8-mer AATATGCA]
Result: 0.482

Problem: Please list binding signal (PBM E-score (-0.5 to 0.5)) recorded for the sequence ATGAATAA (double strand) [8-mer ATGAATAA]
Result: 0.477

Problem: Please list binding signal (PBM E-score (-0.5 to 0.5)) recorded for the sequence ATGCATAA (double strand) [8-mer ATGCATAA]
Result: 0.495

***
Problem: Please list binding signal (PBM E-score (-0.5 to 0.5)) recorded for the sequence CATATGCA (double strand) [8-mer CATATGCA]
Result: 0.478

Problem: Please list binding signal (PBM E-score (-0.5 to 0.5)) recorded for the sequence ATTATGCA (double strand) [8-mer ATTATGCA]
Result: 0.496

Problem: Please list binding signal (PBM E-score (-0.5 to 0.5)) recorded for the sequence CATAATTA (double strand) [8-mer CATAATTA]
Result: 0.483

Problem: Please list binding signal (PBM E-score (-0.5 to 0.5)) recorded for the sequence ATATGCAT (double strand) [8-mer ATATGCAT]
Result: 0.486

Problem: Please list binding signal (PBM E-score (-0.5 to 0.5)) recorded for the sequence AATTATGC (double strand) [8-mer AATTATGC]
Result: 0.484

Problem: Please list binding signal (PBM E-score (-0.5 to 0.5)) recorded for the sequence TATGCAAA (double strand) [8-mer TATGCAAA]
Result: 0.486

Problem: Please list binding signal (PBM E-score (-0.5 to 0.5)) recorded for the sequence GAATATTC (double strand) [8-mer GAATATTC]
Result: 0.494
